In this section we review reported pIC50 values for a set of molecules.
Biological target: Histone-lysine N-methyltransferase EHMT2 (Homo sapiens)
Sequence (Q96KQ7 whole entry): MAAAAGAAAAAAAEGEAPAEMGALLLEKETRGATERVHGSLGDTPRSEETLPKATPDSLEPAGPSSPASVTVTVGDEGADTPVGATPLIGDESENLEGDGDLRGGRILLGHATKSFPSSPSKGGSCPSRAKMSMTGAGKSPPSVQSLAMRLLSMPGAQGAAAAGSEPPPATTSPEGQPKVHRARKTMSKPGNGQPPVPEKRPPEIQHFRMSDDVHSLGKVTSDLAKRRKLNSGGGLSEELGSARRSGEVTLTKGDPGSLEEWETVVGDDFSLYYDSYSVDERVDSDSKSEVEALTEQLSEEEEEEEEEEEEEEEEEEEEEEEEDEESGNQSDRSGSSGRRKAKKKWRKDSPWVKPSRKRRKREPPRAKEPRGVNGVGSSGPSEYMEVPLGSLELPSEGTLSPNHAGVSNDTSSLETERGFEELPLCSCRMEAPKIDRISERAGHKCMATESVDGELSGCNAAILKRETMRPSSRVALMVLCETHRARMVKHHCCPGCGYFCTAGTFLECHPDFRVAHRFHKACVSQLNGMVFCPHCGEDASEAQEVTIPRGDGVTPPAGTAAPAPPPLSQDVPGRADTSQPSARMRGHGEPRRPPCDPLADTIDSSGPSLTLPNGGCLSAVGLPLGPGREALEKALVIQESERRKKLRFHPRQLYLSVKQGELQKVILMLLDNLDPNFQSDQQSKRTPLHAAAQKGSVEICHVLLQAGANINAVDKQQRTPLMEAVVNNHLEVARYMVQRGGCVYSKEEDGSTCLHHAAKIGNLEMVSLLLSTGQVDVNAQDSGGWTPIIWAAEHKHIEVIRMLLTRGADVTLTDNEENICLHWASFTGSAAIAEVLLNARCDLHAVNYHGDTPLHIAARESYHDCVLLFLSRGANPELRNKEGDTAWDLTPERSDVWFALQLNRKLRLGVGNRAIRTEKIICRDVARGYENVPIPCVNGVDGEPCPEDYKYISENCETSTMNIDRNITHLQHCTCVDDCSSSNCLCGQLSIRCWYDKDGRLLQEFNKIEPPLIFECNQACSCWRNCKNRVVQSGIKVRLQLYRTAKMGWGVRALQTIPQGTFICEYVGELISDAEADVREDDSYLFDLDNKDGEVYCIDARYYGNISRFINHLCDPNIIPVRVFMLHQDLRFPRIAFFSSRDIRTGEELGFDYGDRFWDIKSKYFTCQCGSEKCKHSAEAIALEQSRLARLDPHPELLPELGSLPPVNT
Assay: Inhibition of protein lysine methyltransferase G9a (unknown origin) by modified ELISA assay
When answering, recall that pIC50 equals minus log10 of the concentration in mol/L, and write that number alone.

Below, 3 molecules whose answers are already recorded.
[
  {
    "molecule": "CN1C(=O)C2(S)CCCN2C(=O)C1(S)CO (racemic)",
    "assay_result": 4.88
  },
  {
    "molecule": "CN1C(=O)[C@@]2(S)C[C@]3([C@]45C[C@]6(S)C(=O)N(C)[C@](S)(CO)C(=O)N6[C@H]4Nc4ccccc45)c4ccccc4N[C@@H]3N2C(=O)[C@@]1(S)CO",
    "assay_result": 4.57
  },
  {
    "molecule": "CN1C(=O)[C@@]23C[C@]4([C@]56C[C@@]78SS[C@@](CO)(C(=O)N7[C@H]5Nc5ccccc56)N(C)C8=O)c5ccccc5N[C@@H]4N2C(=O)[C@]1(CO)SS3",
    "assay_result": 5.14
  }
]

Would you kindly look at the next entry?
Q) Read off the recorded pIC50 for CN1C(=O)[C@@]23C[C@@H]4c5ccccc5N[C@@H]4N2C(=O)[C@@]1(CO[Si](C)(C)C(C)(C)C)SS3
A) 5.48
